# targetOfAssay: CFTR ΔF508 (Homo sapiens, UniProt P13569, DEL508-508)
# Construct: bronchial epithelial cells isolated from CF patients homozygous for the CFTR ΔF508 mutation; McGill University; Asterand; University of North Carolina hAEC-CF; host or cells: primary human bronchial epithelial cells from CF patients homozygous for ΔF508, differentiated at air-liquid interface
# Sequence (P13569 with tags, fused parts or gaps DEL508-508): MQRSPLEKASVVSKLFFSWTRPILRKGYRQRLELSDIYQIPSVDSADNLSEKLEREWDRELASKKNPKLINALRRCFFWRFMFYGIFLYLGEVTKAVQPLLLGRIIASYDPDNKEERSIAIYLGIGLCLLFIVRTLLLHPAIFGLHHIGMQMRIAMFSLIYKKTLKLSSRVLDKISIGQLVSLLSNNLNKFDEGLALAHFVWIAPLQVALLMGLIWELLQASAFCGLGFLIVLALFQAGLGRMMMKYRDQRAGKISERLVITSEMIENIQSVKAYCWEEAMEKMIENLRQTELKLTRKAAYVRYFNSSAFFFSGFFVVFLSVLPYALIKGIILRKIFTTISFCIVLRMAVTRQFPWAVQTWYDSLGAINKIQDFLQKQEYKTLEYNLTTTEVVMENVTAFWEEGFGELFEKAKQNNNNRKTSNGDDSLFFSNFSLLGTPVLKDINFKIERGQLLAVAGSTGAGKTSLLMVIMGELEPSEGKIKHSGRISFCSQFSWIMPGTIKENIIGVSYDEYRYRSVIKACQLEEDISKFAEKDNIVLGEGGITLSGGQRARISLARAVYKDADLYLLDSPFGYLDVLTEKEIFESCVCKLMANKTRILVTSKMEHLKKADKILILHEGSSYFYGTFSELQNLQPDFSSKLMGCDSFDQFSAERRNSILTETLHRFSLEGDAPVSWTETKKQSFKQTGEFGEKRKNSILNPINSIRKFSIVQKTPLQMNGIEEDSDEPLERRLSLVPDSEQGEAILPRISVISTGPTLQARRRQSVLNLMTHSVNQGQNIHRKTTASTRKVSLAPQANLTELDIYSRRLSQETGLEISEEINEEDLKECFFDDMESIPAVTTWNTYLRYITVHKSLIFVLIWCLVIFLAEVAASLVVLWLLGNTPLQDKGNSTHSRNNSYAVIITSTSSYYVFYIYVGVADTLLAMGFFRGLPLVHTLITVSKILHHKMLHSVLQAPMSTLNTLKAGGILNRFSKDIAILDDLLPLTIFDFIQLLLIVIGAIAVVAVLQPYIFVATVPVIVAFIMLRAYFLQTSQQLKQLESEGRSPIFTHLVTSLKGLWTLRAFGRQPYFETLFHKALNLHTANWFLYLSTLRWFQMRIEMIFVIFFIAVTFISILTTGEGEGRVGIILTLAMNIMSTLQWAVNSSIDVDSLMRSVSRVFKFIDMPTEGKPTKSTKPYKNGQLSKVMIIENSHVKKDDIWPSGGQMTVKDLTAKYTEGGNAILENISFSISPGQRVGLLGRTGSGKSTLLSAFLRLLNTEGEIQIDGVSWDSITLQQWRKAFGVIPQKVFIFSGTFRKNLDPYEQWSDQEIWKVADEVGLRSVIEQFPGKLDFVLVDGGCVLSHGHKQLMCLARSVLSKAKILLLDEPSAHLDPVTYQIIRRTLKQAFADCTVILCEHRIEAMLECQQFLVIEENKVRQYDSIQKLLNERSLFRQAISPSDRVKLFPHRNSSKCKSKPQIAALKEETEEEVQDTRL
# test: Chronic TECC assay, primary bronchial epithelial cells of CF patients homozygous for CFTR ΔF508 (corrector, co-corrector and potentiator)
# Format: cell-based
# experimentalParameters: chronic TECC; test compound at 1 μM; Ieq = calculations based on the maximum current
Each item that follows carries a reported % Activity at 1 μM (Ieq*).
quantityKind: % Activity at 1 μM (Ieq*) (%)

In [3]: df
Out[3]:
                             compoundstring  unitspec  number
0  CS(=O)(=O)NC(=O)c1cc(-c2ccc(N3CCC(C#N)CC3)nc2)c2c(C3CCC3)nn(C3CCCCC3)c2n1         %     720
1  CC(C)c1nn(-c2cccc(N3CCCC3)c2)c2nc(C(=O)NS(C)(=O)=O)cc(-c3ccc(N(C)C4CCOCC4)cc3)c12         %     170
2  CC(C)c1nn(-c2cccc(N3CCOCC3)c2)c2nc(C(=O)NS(C)(=O)=O)cc(-c3ccc(N(C)C4CCOCC4)nc3)c12         %     150
